Each entry below carries its recorded Emax.
# Tgt: F508delCFTR (Homo sapiens, UniProt P13569, DEL508-508)
# Construct: expressed in transfected cells; host or cells: CFBE41o- human lung derived epithelial cells (CFBE41o-F508delCFTR-HRP), doxycycline-inducible
# Sequence (P13569 with tags, fused parts or gaps DEL508-508): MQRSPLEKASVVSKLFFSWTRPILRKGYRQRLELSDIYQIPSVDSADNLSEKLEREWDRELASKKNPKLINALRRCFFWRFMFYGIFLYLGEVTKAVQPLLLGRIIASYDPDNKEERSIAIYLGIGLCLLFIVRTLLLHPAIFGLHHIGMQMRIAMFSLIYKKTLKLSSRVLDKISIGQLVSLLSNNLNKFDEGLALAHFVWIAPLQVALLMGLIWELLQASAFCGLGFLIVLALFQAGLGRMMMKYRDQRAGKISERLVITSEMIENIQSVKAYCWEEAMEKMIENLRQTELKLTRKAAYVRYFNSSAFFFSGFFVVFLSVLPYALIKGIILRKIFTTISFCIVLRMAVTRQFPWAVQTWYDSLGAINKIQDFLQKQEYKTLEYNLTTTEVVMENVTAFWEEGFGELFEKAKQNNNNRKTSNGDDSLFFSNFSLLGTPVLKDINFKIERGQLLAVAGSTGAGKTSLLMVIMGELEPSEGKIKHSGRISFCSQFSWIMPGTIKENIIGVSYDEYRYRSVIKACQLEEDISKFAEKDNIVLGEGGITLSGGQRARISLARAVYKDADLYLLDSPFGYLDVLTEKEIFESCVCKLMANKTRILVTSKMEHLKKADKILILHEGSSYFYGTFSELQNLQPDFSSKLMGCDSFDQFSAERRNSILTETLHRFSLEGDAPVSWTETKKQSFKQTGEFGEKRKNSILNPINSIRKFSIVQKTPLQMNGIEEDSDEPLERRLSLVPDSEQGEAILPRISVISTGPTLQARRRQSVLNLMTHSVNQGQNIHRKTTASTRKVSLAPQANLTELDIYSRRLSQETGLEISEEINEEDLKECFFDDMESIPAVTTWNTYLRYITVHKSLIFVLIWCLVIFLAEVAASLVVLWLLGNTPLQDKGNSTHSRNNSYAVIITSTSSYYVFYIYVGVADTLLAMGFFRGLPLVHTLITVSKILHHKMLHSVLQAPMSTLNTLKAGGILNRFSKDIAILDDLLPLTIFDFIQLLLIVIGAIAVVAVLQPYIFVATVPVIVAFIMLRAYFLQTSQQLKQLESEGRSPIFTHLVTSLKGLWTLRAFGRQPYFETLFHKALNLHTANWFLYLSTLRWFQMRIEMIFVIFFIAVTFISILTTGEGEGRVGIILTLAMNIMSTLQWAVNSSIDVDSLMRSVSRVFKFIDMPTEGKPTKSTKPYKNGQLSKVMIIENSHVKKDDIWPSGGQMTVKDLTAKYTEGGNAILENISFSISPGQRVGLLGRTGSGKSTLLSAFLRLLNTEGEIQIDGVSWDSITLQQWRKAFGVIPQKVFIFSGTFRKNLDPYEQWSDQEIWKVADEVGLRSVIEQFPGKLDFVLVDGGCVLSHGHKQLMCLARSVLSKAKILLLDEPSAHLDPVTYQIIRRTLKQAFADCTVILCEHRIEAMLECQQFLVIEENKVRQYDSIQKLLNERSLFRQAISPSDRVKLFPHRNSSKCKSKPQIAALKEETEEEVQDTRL
# Method: Cell Surface Expression-Horse Radish Peroxidase (CSE-HRP) Assay;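 on Maximum % activity (without co-corrector): % of on-plate positive control chromenyl benzoic acid corrector at 2 or 3 µM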
# Assay type: cell-based
# Test settings: test compound without co-corrector; maximum at any tested concentration; read-out: Maximum % activity (without co-corrector)
# Protocol: A cellular assay for measuring the F508delCFTR cell surface expression after correction with test compounds either without or with a co-corrector (2 μM of 3-[(2R,4R)-4-({[1-(2,2-difluoro-1,3-benzodioxol-5-yl)cyclopropyl]carbonyl}amino)-7-methoxy-3,4-dihydro-2H-chromen-2-yl]benzoic acid), was developed in human lung derived epithelial cell line (CFBE4lo−) (Veit G et al, (2012) Mol Biol Cell. 23(21): 4188-4202). […] The raw counts from the experiment were analyzed using Accelrys® Assay Explorer v3.3. […]

Cc1ccc2c(S(=O)(=O)NC(=O)C3(c4cc(OC(C)C)cnc4OC(C)C)CC3)cccc2n1 = > 150%
COc1cnc(OCC(C)C)c(C2(C(=O)NS(=O)(=O)c3cccc4[nH]ccc34)CC2)c1 = > 150%

Consider the compound COc1cc(C)c(C2(C(=O)NS(=O)(=O)c3cccc4ncccc34)CC2)cn1 and give its measured Emax. 50 to 150%

Consider the compound COc1cnc(N2CCCC2)c(C2(C(=O)NS(=O)(=O)c3cccc4ncccc34)CC2)c1 and give its measured Emax. > 150%

Consider the compound COc1nc(C(F)(F)F)ccc1C1(C(=O)NS(=O)(=O)c2cccc3c2CCCN3)CC1 and give its measured Emax. 50 to 150%

Consider the compound O=C(NS(=O)(=O)c1cccc2[nH]ccc12)C1(c2cc(C3CC3)cnc2N2CCCC2)CC1 and give its measured Emax. > 150%

Consider the compound COCCOc1ncc(C)cc1C1(C(=O)NS(=O)(=O)c2cccc3ncccc23)CC1 and give its measured Emax. 50 to 150%

Consider the compound O=C(NS(=O)(=O)c1cccc2ncccc12)C1(c2cc(Cl)cnc2C(F)(F)F)CC1 and give its measured Emax. < 50%

Consider the compound CC(C)COc1ncc(C2CCC2)cc1C1(C(=O)NS(=O)(=O)c2cccc3[nH]ccc23)CC1 and give its measured Emax. > 150%

Consider the compound CC(C)Oc1ncc(N(C)C)cc1C1(C(=O)NS(=O)(=O)c2cccc3[nH]ccc23)CC1 and give its measured Emax. > 150%

Consider the compound COc1cnc(OC(C)C)c(C2(C(=O)NS(=O)(=O)c3cccc4ncccc34)CC2)c1 and give its measured Emax. > 150%

Consider the compound CCc1cnc(N2CCC(OC(C)C)CC2)c(C2(C(=O)NS(=O)(=O)c3cccc4nc(C)ccc34)CC2)c1 and give its measured Emax. > 150%

* * *

# Tgt: F508delCFTR (Homo sapiens, UniProt P13569, DEL508-508)
# Construct: expressed in transfected cells; host or cells: CFBE41o- human lung derived epithelial cells (CFBE41o-F508delCFTR-HRP), doxycycline-inducible
# Method: Cell Surface Expression-Horse Radish Peroxidase (CSE-HRP) Assay;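 on EC50 (with co-corrector): co-corrector chromenyl benzoic acid corrector at 2 or 3 µM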
# Assay type: cell-based
# Test settings: with co-corrector; read-out: EC50 (with co-corrector)
pEC50: −log10 of the molar value.
Each entry below carries its recorded pEC50.

Check out these entries, answers already filled in.
O=C(NS(=O)(=O)Cc1ccccc1)C1(c2ccc(Cl)cc2Cl)CC1 = 5.00 to 5.52
CC(C)Oc1ncc(C2CCC2)cc1C1(C(=O)NS(=O)(=O)c2cccc3ncccc23)CC1 = > 5.52
CC(C)COc1ncc(N(C)C)cc1C1(C(=O)NS(=O)(=O)c2cccc3ncccc23)CC1 = > 5.52

Consider the compound COc1ccc(C(C)C)cc1C1(C(=O)NS(=O)(=O)c2cccc3nc(C)ccc23)CC1 and give its measured pEC50. > 5.52

Consider the compound O=C(NS(=O)(=O)c1ccc(-c2ccno2)s1)C1(c2ccc(Cl)cc2Cl)CC1 and give its measured pEC50. < 5.00

Consider the compound CC(C)Oc1cnc(C2CCC2)cc1C1(C(=O)NS(=O)(=O)c2cccc3ncccc23)CC1 and give its measured pEC50. > 5.52

Consider the compound COc1cccc(C2CCC2)c1C1(C(=O)NS(=O)(=O)c2cccc3ncccc23)CC1 and give its measured pEC50. > 5.52

Consider the compound COc1cccc(C)c1C1(C(=O)NS(=O)(=O)c2cccc3ccc(C)nc23)CC1 and give its measured pEC50. > 5.52

Consider the compound COc1cccc(OCC2CC2)c1C1(C(=O)NS(=O)(=O)c2cccc3ncccc23)CC1 and give its measured pEC50. > 5.52
